// provenance: PubChem BioAssay (NCI)

Parameter: growth. Scope: all listed entries.
System: SNB-19 CNS
procedure_text: NCI-60 one-dose screen, 48 h (100 = growth as untreated, 0 = no growth, -100 = all killed)
condition_label: 10 µM unless noted
The panel holds about 83,000 compounds, 20% with a hit somewhere; the sample as a whole holds those more often. The source made the active and inactive calls. How the source made its calls: active means growth percent below 10; inactive means the rest.

Completed entries (count: 5):
compound	growth
COc1ccc2c(c1)NC(=O)CN2c1nc(NC2CC2)nc2ccccc12	29.9% (inactive)
CC[C@H](C)[C@@H]1NC(=O)[C@H]([C@@H](C)O)NC(=O)C(Cc2ccccc2)NC(=O)[C@@H]2CCCN2C(=O)C(C(C)C)NC(=O)C(Cc2ccccc2)NC(=O)CNC(=O)[C@@H]2CCCN2C1=O (stereo partly specified)	73.6% (inactive)
O=C1CCCCN1CCCCC#Cc1ccccc1C#Cc1ccccn1	108% (inactive)
CC/C=C\C/C=C\C[C@H]1C/C=C2/C(=O)C=C[C@H]2C/C=C\CCC(=O)O1	40.6% (inactive)
CC(=O)Nc1nc(C(=O)N2N=C(C)/C(=C/c3cccs3)C2=O)cs1	102% (inactive)

Next item in the queue.
growth reading for `O=C(/C=C/c1ccccc1)n1c(-c2ccc(Cl)cc2)nc2ccccc21` : 41.1% (inactive)
